Origin of the recorded values: the supplement of paper PMC10065799

target.or.system: Grb2 SH2 (UniProt P62993)
Sequence (P62993 whole entry, looked up, the tested form may be a part): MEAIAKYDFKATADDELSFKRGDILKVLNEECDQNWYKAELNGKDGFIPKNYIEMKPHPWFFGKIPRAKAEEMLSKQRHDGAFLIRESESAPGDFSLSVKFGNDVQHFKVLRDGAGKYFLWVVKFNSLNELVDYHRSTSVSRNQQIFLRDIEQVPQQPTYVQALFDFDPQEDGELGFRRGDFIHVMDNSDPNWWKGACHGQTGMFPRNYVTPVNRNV
assay.name: SH2 binding enrichment of the phosphorylated peptide, bacterial display (enrichment ratio); higher = better substrate or ligand; peptides without Tyr show the background;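 note: peptide library displayed on the E. coli surface as eCPX fusions, selected cells deep-sequenced, score is each peptide's frequency after selection divided by its frequency in the input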
reported.metric: SH2 binding enrichment

RLLVVYPWTQK [HBG1_Y36_R41K] :: 2.31
SVTWTYSPALN [TP53_Y126_C124W] :: 0.567
LNCDRYSAGLL [PDE6A_Y275_V277A] :: 0.755
GHEYIYVDPMQ [PDGFRA_Y574] :: 0.873
QSRSPYSSRHS [CDK13_Y415_R410Q] :: 1.2
STTIHYNFMCN [TP53_Y234_C229S_YF] :: 0.788
RAIELCNDKEK [OTULIN_Y244_Y244C] :: 1
CENNRYGMGAS [PDHA1_Y227_T231A] :: 0.849
KANEFYPVVLI [ADAMTS18_Y765_YF] :: 0.663
FATAGYGSLEA [EPHA10_Y959_A956T] :: 0.901
VFFGSYSCPFG [NKAP_Y104_R106C_YF] :: 0.598
LVTAWYIGFLC [KCNQ2_Y237] :: 1.16
PLCPDYQEPSR [DDR2_Y481_R478C] :: 0.86
TLPAFYMENFS [GLB1_Y552_G554E] :: 0.853
ETEMLYGSARR [PRC1_Y464_P468R] :: 0.853
ECKLFYSRKEG [PTPN11_Y263_L262F] :: 0.746
HAVYVCDICHV [TWNK_Y508_Y508C] :: 1.18
MSSLYYANALF [HOXB7_Y6_T9A] :: 4.61
RLGVTYEQALA [MAP2_Y996_G991R] :: 0.848
KMKGDYYRSLA [YWHAG_Y130_Y133S] :: 0.888
LIFTNYEAGKD [GSTP1_Y112_YF] :: 0.848
IVRSLYEDPED [VHL_Y185_L188P] :: 0.823
FRAVKYLQMVG [AVPR2_Y117_C112Y_YF] :: 0.96
QGGRCYMMIVD [GAA_Y438_R437C] :: 0.696
IMFTSYFLTIL [TAS2R16_Y239_V235M] :: 1.04
GYEEAYSVSKK [PAFAH1B1_Y28_F31S] :: 0.798
SKNSKCNAEST [PSEN1_Y315_Y315C] :: 0.913
SVTCTYPPALN [TP53_Y126_S127P] :: 0.865
HLEKKYVHRDS [CSF1R_Y708_R710H] :: 1.26
ANAFIYDVQLP [L1CAM_Y420_V421D_YF] :: 1.01
GLDGSYLLRFS [SH2D1A_Y29_D33Y_YF] :: 0.885
YRVDCYKNFVA [FHL1_Y213_C209R] :: 1.51
EILLSDLRTGF [TGM1_Y365_Y365D_YF] :: 0.7
KRIETYFSKNY [PLP1_Y50_L46R] :: 0.787
IMITDYLLLFR [INSR_Y87] :: 1.38
LLIMEYAKYGS [RET_Y806_V804M] :: 1.41
TPRNTYKMTSL [MKI67_Y849] :: 1.36
NDENIYKGLPD [VAV3_Y141_D139N] :: 1.1
EEQKKYYNATK [SCN5A_Y1494_M1498T] :: 1.01
FSKTQYNQVPR [CXADR_Y318_S323R_YF] :: 1.16
EVESPYEVHDY [GIGYF2_Y1168] :: 0.86
ELCSEYRKSRK [SPINK5_Y440] :: 1.03
RRIHSYRCHLW [VHL_Y112_G114C] :: 0.707
TKVVHYWKWIK [KLK2_Y249_R250W] :: 1.41
SHISGYATLRR [RAPH1_Y1226] :: 0.697
ARVDTYCRHNY [HLA-DRB1_Y107_A103R] :: 1.09
FSQQTYCRVSN [ABCD1_Y180_Y181C] :: 0.817
EELLHYAIVTP [POC5_Y37] :: 0.691
CTTIHYNYLCN [TP53_Y234_M237L] :: 1.45
QLQVFYATLDQ [MIPEP_Y579] :: 1.26
SKKSTYQALLD [GANC_Y43] :: 0.788
QLDQRYLLVPE [DDX49_Y223] :: 0.754
YLRTGYSVPYG [TGM1_Y370] :: 0.848
QRRLVYFERGA [RYR1_Y245_G248R_YF] :: 0.942
TSIGNYFKPWF [DHCR24_Y299_N294T_YF] :: 0.907
LHRAHYDLCHT [AHSG_Y314_R317C] :: 1.13
